Provide the reported log10(IC50) of each item.
# Tested on: Plasmodium falciparum
# Assay Text: Antimalarial activity against chloroquine-,pyrimethamine-resistant Plasmodium falciparum W2 assessed as inhibition of [3H]hypoxanthine incorporation after 96 hrs by microtiter plate scintillation counting
# Format: functional, organism-based
Field: value | Transform: log10 | Quantity: IC50 | Unit: nM

Challenge: Return reported log10(IC50); argument: C=CCNC(=S)NCCCN1C[C@H](C)C[C@@](C)(O)[C@H](O[C@@H]2O[C@H](C)C[C@H](N(C)C)[C@H]2O)[C@@H](C)[C@H](O[C@H]2C[C@@](C)(OC)[C@@H](O)[C@H](C)O2)[C@@H](C)C(=O)O[C@H](CC)[C@@](C)(O)[C@H](O)[C@H]1C
Response given: 2.44

Challenge: Return reported log10(IC50); argument: CC[C@H]1OC(=O)[C@H](C)[C@@H](O[C@H]2C[C@@](C)(OC)[C@@H](O)[C@H](C)O2)[C@H](C)[C@@H](O[C@@H]2O[C@H](C)C[C@H](N(C)C)[C@H]2O)[C@](C)(O)C[C@@H](C)CN(CCCNC(=S)Nc2ccccc2F)[C@H](C)[C@@H](O)[C@]1(C)O
Response given: 2.60

Challenge: Return reported log10(IC50); argument: CC[C@H]1OC(=O)[C@H](C)[C@@H](O[C@H]2C[C@@](C)(OC)[C@@H](O)[C@H](C)O2)[C@H](C)[C@@H](O[C@@H]2O[C@H](C)C[C@H](N(C)C)[C@H]2O)[C@](C)(O)C[C@@H](C)CN(CCCNC(=S)NC(C)C)[C@H](C)[C@@H](O)[C@]1(C)O
Response given: 3.11

Challenge: Return reported log10(IC50); argument: CC[C@H]1OC(=O)[C@H](C)[C@@H](O[C@H]2C[C@@](C)(OC)[C@@H](O)[C@H](C)O2)[C@H](C)[C@@H](O[C@@H]2O[C@H](C)C[C@H](N(C)C)[C@H]2O)[C@](C)(O)C[C@@H](C)CN(CCCNC(=S)Nc2ccc(F)cc2)[C@H](C)[C@@H](O)[C@]1(C)O
Response given: 1.86

Challenge: Return reported log10(IC50); argument: CC[C@H]1OC(=O)[C@H](C)[C@@H](O[C@H]2C[C@@](C)(OC)[C@@H](O)[C@H](C)O2)[C@H](C)[C@@H](O[C@@H]2O[C@H](C)C[C@H](N(C)C)[C@H]2O)[C@](C)(O)C[C@@H](C)CN(CCCNC(=S)Nc2ccc(OCc3ccccc3)cc2)[C@H](C)[C@@H](O)[C@]1(C)O
Response given: 1.95

Challenge: Return reported log10(IC50); argument: CC[C@H]1OC(=O)[C@H](C)[C@@H](O[C@H]2C[C@@](C)(OC)[C@@H](O)[C@H](C)O2)[C@H](C)[C@@H](O[C@@H]2O[C@H](C)C[C@H](N(C)C)[C@H]2O)[C@](C)(O)C[C@@H](C)CN(CCCNC(=S)NCCCN(CC)CC)[C@H](C)[C@@H](O)[C@]1(C)O
Response given: 3.50

Challenge: Return reported log10(IC50); argument: CC[C@H]1OC(=O)[C@H](C)[C@@H](O[C@H]2C[C@@](C)(OC)[C@@H](O)[C@H](C)O2)[C@H](C)[C@@H](O[C@@H]2O[C@H](C)C[C@H](N(C)C)[C@H]2O)[C@](C)(O)C[C@@H](C)CN(CCCNC(=O)Nc2cccc(Cl)c2)[C@H](C)[C@@H](O)[C@]1(C)O
Response given: 2.27

Challenge: Return reported log10(IC50); argument: CC[C@H]1OC(=O)[C@H](C)[C@@H](O[C@H]2C[C@@](C)(OC)[C@@H](O)[C@H](C)O2)[C@H](C)[C@@H](O[C@@H]2O[C@H](C)C[C@H](N(C)C)[C@H]2O)[C@](C)(O)C[C@@H](C)CN(CCCNC(=O)Nc2cccs2)[C@H](C)[C@@H](O)[C@]1(C)O
Response given: 2.86

Challenge: Return reported log10(IC50); argument: CC[C@H]1OC(=O)[C@H](C)[C@@H](O[C@H]2C[C@@](C)(OC)[C@@H](O)[C@H](C)O2)[C@H](C)[C@@H](O[C@@H]2O[C@H](C)C[C@H](N(C)C)[C@H]2O)[C@](C)(O)C[C@@H](C)CN(CCCNC(=S)Nc2cccnc2)[C@H](C)[C@@H](O)[C@]1(C)O
Response given: 3.08

Challenge: Return reported log10(IC50); argument: CC[C@H]1OC(=O)[C@H](C)[C@@H](O[C@H]2C[C@@](C)(OC)[C@@H](O)[C@H](C)O2)[C@H](C)[C@@H](O[C@@H]2O[C@H](C)C[C@H](N(C)C)[C@H]2O)[C@](C)(O)C[C@@H](C)CN(CCCNC(=O)Nc2ccc(CC#N)cc2)[C@H](C)[C@@H](O)[C@]1(C)O
Response given: 2.17

Challenge: Return reported log10(IC50); argument: CC[C@H]1OC(=O)[C@H](C)[C@@H](O[C@H]2C[C@@](C)(OC)[C@@H](O)[C@H](C)O2)[C@H](C)[C@@H](O[C@@H]2O[C@H](C)C[C@H](N(C)C)[C@H]2O)[C@](C)(O)C[C@@H](C)CN(CCCNC(=O)Nc2cccc(C(F)(F)F)c2)[C@H](C)[C@@H](O)[C@]1(C)O
Response given: 2.13

Challenge: Return reported log10(IC50); argument: CC[C@H]1OC(=O)[C@H](C)[C@@H](O[C@H]2C[C@@](C)(OC)[C@@H](O)[C@H](C)O2)[C@H](C)[C@@H](O[C@@H]2O[C@H](C)C[C@H](N(C)C)[C@H]2O)[C@](C)(O)C[C@@H](C)CN(CCCNC(=O)Nc2ccc(C(C)C)cc2)[C@H](C)[C@@H](O)[C@]1(C)O
Response given: 1.85

Challenge: Return reported log10(IC50); argument: CC[C@H]1OC(=O)[C@H](C)[C@@H](O[C@H]2C[C@@](C)(OC)[C@@H](O)[C@H](C)O2)[C@H](C)[C@@H](O[C@@H]2O[C@H](C)C[C@H](N(C)C)[C@H]2O)[C@](C)(O)C[C@@H](C)CN(CCCNC(=S)Nc2cccc(C(F)(F)F)c2)[C@H](C)[C@@H](O)[C@]1(C)O
Response given: 1.48

Challenge: Return reported log10(IC50); argument: CC[C@H]1OC(=O)[C@H](C)[C@@H](O[C@H]2C[C@@](C)(OC)[C@@H](O)[C@H](C)O2)[C@H](C)[C@@H](O[C@@H]2O[C@H](C)C[C@H](N(C)C)[C@H]2O)[C@](C)(O)C[C@@H](C)CN(CCCNC(=O)Nc2ccc(C)cc2)[C@H](C)[C@@H](O)[C@]1(C)O
Response given: 1.95
